- test-protocol: Kp,uu CNS exposure in preclinical species
- Assay type: in vivo
- test-conditions: mouse, rat, dog, cynomolgus monkey; ratio of unbound drug in brain (or CSF) versus plasma; multiple preclinical species
property-label: Kp uu

Give me measured Kp uu, please, for this molecule: C=CC(=O)N1CCCC[C@@H](n2c(NC(=O)c3ccnc(C)c3)nc3ccc(O[C@H]4CCOC4)c(Cl)c32)C1 [NX-019]
~1

====

- test-protocol: Brain and plasma exposure ratio, rat
- Assay type: in vivo
- test-conditions: brain/plasma, read-out: AUC of brain/plasma ratio
property-label: Kp

Give me measured Kp, please, for this compound: C=CC(=O)N1CCCC[C@@H](n2c(NC(=O)c3ccnc(C)c3)nc3ccc(O[C@H]4CCOC4)c(Cl)c32)C1
> 1

====

- System: NCI-H1975 EGFR T790M/L858R
- test-protocol: In vitro cell potency, cell viability after 3 days
- Assay type: cell-based
- test-conditions: Homo sapiens, Complex T790M/L858R
- Method: NX-019 is selective for mutant EGFR over wild-type EGFR. and broadly effective against EGFR for a wide range of mutations and mutational types. […] The results are also shown in FIG. 3, where Ba/F3 (engineered with specific EGFR mutations using standard protocols) or cancer cell lines, expressing wildtype or mutant EGFR, were treated with titrating concentrations of NX-019 and cell viability was measured after 3 days.
property-label: EC50

Quote NCI-H1975 EGFR T790M/L858R EC50 for entry C=CC(=O)N1CCCC[C@@H](n2c(NC(=O)c3ccnc(C)c3)nc3ccc(O[C@H]4CCOC4)c(Cl)c32)C1 [NX-019] .
0.003 to 0.02 µM

====

- Test system: Ba/F3 EGFR T790M
- test-protocol: In vitro cell potency, cell viability after 3 days
- Assay type: cell-based
- test-conditions: Common resistant mutation T790M, exon 20
property-label: pEC50
The value called pEC50 is obtained by taking minus log10 of the concentration in mol/L.

Give me measured pEC50, please, for this compound: C=CC(=O)N1CCCC[C@@H](n2c(NC(=O)c3ccnc(C)c3)nc3ccc(O[C@H]4CCOC4)c(Cl)c32)C1
7.49

====

- Tested on: HCC827 EGFR DelE746-A750 (Exon 19 del)
- test-protocol: In vitro cell potency, cell viability after 3 days
- Format: cell-based
- test-conditions: Homo sapiens, Classical DelE746-A750 (Exon 19 del)
property-label: EC50

Give me measured EC50, please, for this compound: C=CC(=O)N1CCCC[C@@H](n2c(NC(=O)c3ccnc(C)c3)nc3ccc(O[C@H]4CCOC4)c(Cl)c32)C1 [NX-019]
2 to 3 nM

====

- System: Ba/F3 EGFR G719S/T263P
- test-protocol: In vitro cell potency, cell viability after 3 days
- Type: cell-based
- test-conditions: Complex G719S/T263P
- Method: NX-019 is selective for mutant EGFR over wild-type EGFR. and broadly effective against EGFR for a wide range of mutations and mutational types. […] The results are also shown in FIG. 3, where Ba/F3 (engineered with specific EGFR mutations using standard protocols) or cancer cell lines, expressing wildtype or mutant EGFR, were treated with titrating concentrations of NX-019 and cell viability was measured after 3 days.
property-label: pEC50
The value called pEC50 is obtained by taking minus log10 of the concentration in mol/L.

Give me measured pEC50, please, for this compound: C=CC(=O)N1CCCC[C@@H](n2c(NC(=O)c3ccnc(C)c3)nc3ccc(O[C@H]4CCOC4)c(Cl)c32)C1
7.59
